pIC50: −log10 of the molar value.
metric name: pIC50

Req: Request body: readout pIC50, system EN PA (Influenza A virus, UniProt P15659), query CNC(=O)c1nn(CC2(n3ccc4ccc(C)cc43)CCCC2)cc(O)c1=O . Return the value.
Resp: > 7.00

Req: Hello, I am looking for reported pIC50 with EN PA (Influenza A virus, UniProt P15659) for CC1(C)CC(Cn2cc(O)c(=O)c(C(=O)O)n2)(c2ccccc2)C1 . Could you help?
Resp: > 7.00

Req: Query pIC50 on EN PA (Influenza A virus, UniProt P15659) for Cc1cn(C2(Cn3cc(O)c(=O)c(C(=O)NC(C)(C)CNC(=O)OC(C)(C)C)n3)CCCC2)c2ncccc12
Resp: 6.00 to 7.00

Req: Tell me reported pIC50 for Cc1csc(CNC(=O)c2nn(CC3(c4cccc(C(F)(F)F)c4)CCCC3)cc(O)c2=O)c1 , tested with EN PA (Influenza A virus, UniProt P15659).
Resp: 6.00 to 7.00

###

Kindly state pIC50 for each of the entries shown.
pIC50: −log10 of the molar value.

Req: Hello, I am looking for reported pIC50 with EN PA (Influenza A virus) for COc1ccccc1CCn1cc(O)c(=O)c(C(=O)O)n1 [Compound 413] . Could you help?
Resp: > 7.00

Req: Request - read-out pIC50 | tested on EN PA (Influenza A virus) | compound CNC(=O)c1nn(CC2(n3cc(C)c4cccnc43)C[C@@H]3[C@@H](CO)[C@@H]3C2)cc(O)c1=O (some centres unmarked) [Compound 885]
Resp: 6.00 to 7.00

Req: Give the reported pIC50 for NC(=O)c1nn(-c2ccccc2S(=O)(=O)c2ccccc2)cc(O)c1=O [Compound 617] (system: EN PA (Influenza A virus)).
Resp: ≤ 6.00

Req: Form field - read-out: pIC50; system: EN PA (Influenza A virus); submitted item: CCOC(=O)c1nn(CCc2ccccc2C(F)(F)F)cc(O)c1=O [Compound 408]
Resp: ≤ 6.00

Req: What measured pIC50 is associated with CNC(=O)c1nn(-c2ccccc2N2CCc3ccccc32)cc(O)c1=O [Compound 632] on EN PA (Influenza A virus)?
Resp: ≤ 6.00

Req: Please provide the recorded pIC50 for CNC(=O)c1nn(CC2(n3cc(C)c4cc(Cl)ccc43)CCCC2)cc(O)c1=O [Compound 898] , tested on EN PA (Influenza A virus).
Resp: > 7.00

Req: Param readout = pIC50; param system = EN PA (Influenza A virus); param query = CCOc1cc(C)cc(-c2ccccc2-n2cc(O)c(=O)c(C(=O)NC)n2)c1 [Compound 633] ; response: value
Resp: ≤ 6.00

Req: Please state recorded pIC50 (tested on EN PA (Influenza A virus)) of CNC(=O)c1nn(CC2(c3ccc4cccnc4c3)CCCC2)cc(O)c1=O [Compound 849]
Resp: > 7.00

###

I'd appreciate it if you could supply IC50 values for the items below.
- target entity: EN PA (Influenza A virus, UniProt P15659)
- test protocol: EN PA FRET Inhibition Assay
- Type: biochemical
- condition description: read-out: Potency

Req: Look up IC50 for this compound: CC(=O)c1nn(CC2(n3cc(C)c4cccnc43)CCCC2)cc(O)c1=O
Resp: 0.1 to 1 µM

Req: # query: IC50 of entry CNC(=O)c1nn(CC2(n3c4c(c5cccnc53)CCC4)CCCC2)cc(O)c1=O
Resp: < 0.1 µM

Req: // lookup IC50 for NC(=O)c1nn(CC2(c3cccc(-c4ccccc4)c3)CCCC2)cc(O)c1=O
Resp: < 0.1 µM

Req: // returns reported IC50 for input COc1ccccc1-c1ccccc1-n1cc(O)c(=O)c(C(=O)O)n1
Resp: 0.1 to 1 µM

Req: Looking for the measured IC50 of CNC(=O)c1nn(CC2(n3ccc4c(C)ccnc43)CCCC2)cc(O)c1=O , can you help?
Resp: < 0.1 µM

Req: # input compound: CNC(=O)c1nn(-c2ccccc2S(=O)(=O)c2ccccc2)cc(O)c1=O ; wanted: its IC50
Resp: ≥ 1 µM

Req: Please give the measured IC50 for this compound: Cc1ccc(C2(Cn3cc(O)c(=O)c(C(=O)O)n3)CC2)cc1
Resp: < 0.1 µM

Req: For the compound shown here, CNC(=O)c1nn(CC2(c3cc(C(F)(F)F)cc(C(F)(F)F)c3)CCCC2)cc(O)c1=O , give the reported IC50.
Resp: 0.1 to 1 µM

Req: Look up IC50: CNC(=O)c1nn(CC2(n3ccc4ccc(F)cc43)CCCC2)cc(O)c1=O
Resp: < 0.1 µM

Req: # input compound: Cn1cc(CNC(=O)c2nn(CC3(c4cccc(C(F)(F)F)c4)CCCC3)cc(O)c2=O)cn1 ; wanted: its IC50
Resp: < 0.1 µM

Req: Reported IC50, compound Cc1cn(C2(Cn3cc(O)c(=O)c(C(=O)C(C)C)n3)CCCC2)c2ncccc12 : ____
Resp: < 0.1 µM

Req: Give its IC50 value. Item: CNC(=O)c1nn(-c2ccccc2-c2cc(OC)ccc2Cl)cc(O)c1=O
Resp: ≥ 1 µM

Req: Entry under review: COc1cccc(CCn2cc(O)c(=O)c(C(=O)O)n2)c1 . Reported IC50?
Resp: < 0.1 µM

Req: Recorded IC50 of CC(C)Oc1ccccc1-c1ccccc1-n1cc(O)c(=O)c(C(=O)O)n1 , please.
Resp: 0.1 to 1 µM

Req: // returns reported IC50 for input O=C(NCc1ccc(F)c(Cl)c1)c1nn(CC2(c3ccc(F)c(F)c3)CCCC2)cc(O)c1=O
Resp: < 0.1 µM

Req: What value of IC50 has been recorded for this entry: CNC(=O)c1nn(CC2(n3cc(C(=O)NC)c4cccnc43)CCCC2)cc(O)c1=O
Resp: < 0.1 µM

Req: Given the entry O=C(NCc1ccc2c(c1)OCO2)c1nn(CC2(c3cccc(C(F)(F)F)c3)CCCC2)cc(O)c1=O , report its measured IC50.
Resp: 0.1 to 1 µM

Req: # query: IC50 of entry CNC(=O)c1nn(CCc2ccccc2OC)cc(O)c1=O
Resp: ≥ 1 µM

Req: Any idea what IC50 was measured for CCNC(=O)c1nn(CC2(n3cc(Cl)c4cccnc43)CCCC2)cc(O)c1=O ?
Resp: < 0.1 µM

Req: Reported IC50 for CNC(=O)c1nn(CC2(n3cc(C(C)=O)c4cc(C)cnc43)CCCC2)cc(O)c1=O : what is it?
Resp: < 0.1 µM

Req: Give the measured IC50 of CNC(=O)c1nn(CC2(n3ccc4cccc(C)c43)CCCC2)cc(O)c1=O .
Resp: < 0.1 µM

Req: Please give the measured IC50 for this compound: CNC(=O)c1nn(CC2(c3cc(C)c4cccnc4c3)CCCC2)cc(O)c1=O
Resp: < 0.1 µM

Req: State the recorded IC50 for this entry: CNC(=O)c1nn(CC2(c3ccc4cc(C)ccc4c3)CCCC2)cc(O)c1=O
Resp: < 0.1 µM

Req: Item O=C(O)c1nn(-c2ccccc2OC(F)F)cc(O)c1=O has what recorded IC50?
Resp: ≥ 1 µM

Req: Field request: IC50 | item: O=C(O)c1nn(-c2ccccc2-c2cccc3c2oc2ccccc23)cc(O)c1=O
Resp: 0.1 to 1 µM

Req: Please give the measured IC50 for this compound: CNC(=O)c1nn(CC2(n3cc(-c4ccccc4)c4cccnc43)CCCC2)cc(O)c1=O [Compound 671]
Resp: 0.1 to 1 µM

Req: Tell me the measured IC50 of O=C(O)c1nn(CCc2ccccc2C(F)(F)F)cc(O)c1=O , please.
Resp: < 0.1 µM

Req: If you can, please state the reported IC50 value of CNC(=O)c1nn(CC2(c3cccc(-c4ccccc4)c3)CCCC2)cc(O)c1=O .
Resp: < 0.1 µM

Req: Recorded IC50 of CONC(=O)c1nn(CC2(n3cc(C)c4cccnc43)CCCC2)cc(O)c1=O , please.
Resp: < 0.1 µM

Req: What value of IC50 has been reported for the following compound? Cc1cn(C2(Cn3cc(O)c(=O)c(C(=O)N4CCC4)n3)CCCC2)c2ncccc12
Resp: < 0.1 µM

Req: If you can, please state the reported IC50 value of CNC(=O)c1nn(CC2(c3cccc4c3cnn4C)CCCC2)cc(O)c1=O .
Resp: < 0.1 µM

Req: Name the recorded IC50 for O=C(O)c1nn(-c2ccccc2C(F)(F)F)cc(O)c1=O .
Resp: 0.1 to 1 µM

Req: I have this compound here, O=C(O)c1nn(CC2(n3ccc4cccnc43)CCCC2)cc(O)c1=O , and I need its recorded IC50.
Resp: < 0.1 µM

Req: What value of IC50 has been recorded for this entry: O=C(NC1CCC1)c1nn(CC2(c3cccc(C(F)(F)F)c3)CCCC2)cc(O)c1=O
Resp: 0.1 to 1 µM

Reference source for all entries: patent US10364226B2
